# Test system: U251 CNS
# procedure.text: NCI-60 one-dose screen, 48 h (100 = growth as untreated, 0 = no growth, -100 = all killed)
# experimental.conditions: 10 µM unless noted
The panel holds about 83,000 compounds, 20% with a hit somewhere; the sample as a whole holds those more often. Calls of active or inactive are those of the source. The calls were made as follows: active = growth percent below 10; inactive = the rest.
Measured growth values are reported for all entries that follow.

Quick check: growth of O=C(Cc1nc2cc(Cl)c(Cl)cc2nc1CC(=O)c1cccnc1)c1cccnc1 ? 89.3% (inactive)

Quick check: growth of CC12CCC(O)CC1=CCC1C2CCC2(C)C3=NN=CC3CC12 (centres undefined) ? 101% (inactive)

Quick check: growth of O=C1C=CC(O)=CC1=P(c1ccccc1)(c1ccccc1)c1ccccc1 ? 92.3% (inactive)

Quick check: growth of COc1cc(-c2ccc(-[n+]3nc(-c4ccc([N+](=O)[O-])cc4)nn3-c3ccc([N+](=O)[O-])cc3)c(OC)c2)ccc1-[n+]1nc(-c2ccc([N+](=O)[O-])cc2)nn1-c1ccc([N+](=O)[O-])cc1 ? 43.9% (inactive)

* * *

# Tested on: MALME-3M melanoma
# procedure.text: NCI-60 one-dose screen, 48 h (100 = growth as untreated, 0 = no growth, -100 = all killed)
# experimental.conditions: 10 µM unless noted
About 83,000 compounds went through this panel and 20% of them were active in at least one assay; those are over-represented in the sample as a whole.
Measured growth values are reported for all entries that follow.
Value expressed in %; do not type the unit.

INSERT INTO results (compound, assay_endpoint, unit_info, measured) VALUES
  ('O=C1C=C(Cl)C(=O)c2ccccc21', 'growth', '%', 85.1),
  ('O=C(Cc1nc2cc(Cl)c(Cl)cc2nc1CC(=O)c1cccnc1)c1cccnc1', 'growth', '%', 65.5),
  ('COc1ccc(C(Cn2ccnc2)Sc2ccc(Cl)c(Cl)c2)cc1 (configuration not stated)', 'growth', '%', 96.1),
  ('CC(=O)C1Cc2ccccc2C1=O (configuration not stated)', 'growth', '%', 94.3),
  ('NC(=Nc1nc(-c2ccccn2)cc2ccccc12)c1ccccn1', 'growth', '%', 19),
  ('CC(CSc1n[nH]c(=S)s1)c1ccccc1 (configuration not stated)', 'growth', '%', 110),
  ('CC1CC(C)(C)OB(OC(C)CC(C)(C)OB2OC(C)CC(C)(C)O2)O1 (configuration not stated)', 'growth', '%', 111),
  ('Nc1cccc2cccc([N+](=O)[O-])c12', 'growth', '%', 111);

Quick check: growth of Cc1cc(C(=C2C=CC(=Nc3ccccc3)C=C2)c2ccc(Nc3ccccc3)cc2)ccc1N ? -63.6

Quick check: growth of O=C1/C(=C/c2ccccc2)CCC/C1=C\c1ccccc1 ? 89.5

Quick check: growth of Oc1c(C(Nc2ccccc2)c2ccccc2)ccc2cccnc12 (configuration not stated) ? 87.6

Quick check: growth of NC(=S)Nc1ccc2c(c1)Cc1ccccc1-2 ? 88.4

* * *

# System: IGROV1 ovarian
# procedure.text: NCI-60 one-dose screen, 48 h
# experimental.conditions: 10 µM unless noted
Compounds without any hit were thinned out: in the full panel of roughly 83,000, 20% have a hit. Activity calls are given as the source filed them. Rule for the calls: active = growth percent below 10; inactive = the rest.
Use one of these outcomes when replying: label 1 = active, label 0 = inactive

Answered cases to consult:
INSERT INTO measurements (compound, qualitative_label) VALUES
  ('Cc1oc2c(C)c3oc(=O)cc(C)c3cc2c1CCl', 'label 0'),
  ('O=[N+]([O-])c1ccc(C(Br)c2ccc([N+](=O)[O-])cc2)cc1', 'label 1'),
  ('NC(CS/C(Cl)=C/Cl)C(=O)O (stereo not given)', 'label 0');

Name the outcome recorded for COc1ccc(/C=C2/C(=O)ON=C2C)cc1 in the assay. label 0

Name the outcome recorded for O=C1CSC(=S)N1Cc1cccnc1 in the assay. label 0

Name the outcome recorded for CSc1nc(C)c(C(=O)CCN2CCN(c3ccccn3)CC2)s1 in the assay. label 0

Name the outcome recorded for Cc1cc(C(N)=O)cc(C)c1C(=O)OCCCl in the assay. label 0

Name the outcome recorded for CCCCCCCCCCCCN1C(C)=CS/C1=C\C=C\c1scc(C)[n+]1CCCCCCCCCCCC in the assay. label 0

Name the outcome recorded for CCCCCCCCCCCC(=O)OC(C)C(=O)NCCCC (stereo not given) in the assay. label 0

* * *

# Test system: OVCAR-3 ovarian
# procedure.text: NCI-60 one-dose screen, 48 h
# experimental.conditions: 10 µM unless noted
Compounds without any hit were thinned out: in the full panel of roughly 83,000, 20% have a hit. Activity calls are given as the source filed them. Rule for the calls: active = growth percent below 10; inactive = the rest.
Use one of these outcomes when replying: True = active, False = inactive

Name the outcome recorded for CC(C)Nc1ccc(Nc2ccc(NC(C)C)cc2)cc1 in the assay. False

Name the outcome recorded for O=[N+]([O-])C=C(c1ccccc1)c1ccccc1 in the assay. False

Name the outcome recorded for Oc1ccc(Cl)cc1Cc1cc(Cl)ccc1O in the assay. True

* * *

Measured growth values are reported for all entries that follow.
# System: 786-0 renal
# procedure.text: NCI-60 one-dose screen, 48 h (100 = growth as untreated, 0 = no growth, -100 = all killed)
# experimental.conditions: 10 µM unless noted
The panel holds about 83,000 compounds, 20% with a hit somewhere; the sample as a whole holds those more often. Calls of active or inactive are those of the source. Rule for the calls: active = growth percent below 10; inactive = the rest.

Please tell me: growth of C(=N\Nc1ccc2ccccc2n1)/c1ccccn1 , system 786-0 renal? 22.1% (inactive)

Please tell me: growth of Cc1ccc2c(c1)sc(-c1ccc(N(C)C)cc1)[n+]2C , system 786-0 renal? 7.31% (active)

Please tell me: growth of NC(=Nc1nc(-c2ccccn2)cc2ccccc12)c1ccccn1 , system 786-0 renal? 3.78% (active)

Please tell me: growth of O=C(NOC(=O)c1ccccc1)c1ccccc1 , system 786-0 renal? 93.9% (inactive)

Please tell me: growth of O=[N+]([O-])c1ccc2c(c1)Cc1ccccc1-2 , system 786-0 renal? 91% (inactive)

Please tell me: growth of Cn1c(-c2ccccc2)c(/C=C/C2=[N+](C)c3ccccc3C2(C)C)c2ccccc21 , system 786-0 renal? 24.2% (inactive)

Please tell me: growth of CCCCCCCCCCCC1N=C(N)N=C(N)N1c1cccc(Br)c1 (stereo not given) , system 786-0 renal? 4.98% (active)

Please tell me: growth of CCOC(=O)/C(=C\c1ccc2ccccc2c1)P(=O)(OCC)OCC , system 786-0 renal? 11.6% (inactive)

Please tell me: growth of CC1CC(C)(C)OB(OC(C)CC(C)(C)OB2OC(C)CC(C)(C)O2)O1 (stereo not given) , system 786-0 renal? 98.4% (inactive)

Please tell me: growth of COc1ccc2c(c1OC)OCC(CN(C)C)C2=O (stereo not given) , system 786-0 renal? 92.7% (inactive)

Please tell me: growth of CN1CCC(c2ccccc2)(c2ccccc2)C(=O)C1 , system 786-0 renal? 86.7% (inactive)

Please tell me: growth of OC(c1cc(C23CC4CC(CC(C4)C2)C3)nc2c(Cl)cc(Cl)cc12)C1CCCCN1 (stereo not given) , system 786-0 renal? -55% (active)

Please tell me: growth of Cc1cc(C)c([I+]c2c(C)cc(C)cc2C)c(C)c1 , system 786-0 renal? -89.6% (active)

Please tell me: growth of COc1ccc2c(c1)c(CC(=O)O)c(C)n2C(=O)c1ccc(Cl)cc1 , system 786-0 renal? 77.4% (inactive)

Please tell me: growth of Oc1ccc2ccccc2c1N=Nc1nccs1 , system 786-0 renal? -40.2% (active)

* * *

# Tested on: DU-145 prostate
# procedure.text: NCI-60 one-dose screen, 48 h
# experimental.conditions: 10 µM unless noted
About 83,000 compounds went through this panel and 20% of them were active in at least one assay; those are over-represented in the sample as a whole. The source made the active and inactive calls. Rule for the calls: active = growth percent below 10; inactive = the rest. *1 amine or outer side, *2 acyl side, *3 side chain or, on linkers, in order; H or OH if unused. Where a SMILES comes first, the peptide text is derived from it. [ ]: non-standard residue; d: D form. The star is where a group is joined. X5 = CCC(=O)CC1CC(C)CC(C(=O)[*:2])N1[*:1]; X4 = CCCCCCCCC(C)C(=O)*; Aib = CC(C)(N)C(=O)O; X6 = CC(CN(C)CCO)N*
Use one of these outcomes when replying: active, inactive

Answered cases to consult:
INSERT INTO assay_data (compound, qualitative_label) VALUES
  ('CCC1CCCCN1C(=S)N/N=C(\C)c1ccccn1 (centres undefined)', 'inactive'),
  ('CN1CCC(CN2c3ccccc3Sc3ccccc32)C1 (centres undefined)', 'inactive'),
  ('CN(C)c1ccc(/C=C/c2ccnc3ccccc23)cc1', 'inactive'),
  ('Cn1ccc(=Nc2ccc(NC(=O)c3ccc(N=c4ccn(C)c5ccc([N+](=O)[O-])cc45)cc3)cc2)cc1', 'inactive'),
  ('CN(C)c1ccc(C(C#N)(c2ccccc2)c2ccc(N(C)C)cc2)cc1', 'inactive');

Name the outcome recorded for O=C1C=CC(=O)N1c1cccc2c1CCCC2 in the assay. inactive

Name the outcome recorded for Oc1ccc2ccccc2c1N=Nc1ccccn1 in the assay. inactive

Name the outcome recorded for CCOc1ccc(C(C[N+](=O)[O-])Sc2ccccc2N)cc1 (centres undefined) in the assay. active

Name the outcome recorded for CCCCCCCCC(C)C(=O)N1CCCC1C(=O)N1C(CC(=O)CC)CC(C)CC1C(=O)NC(C)C(=O)NC(C)(C)C(=O)NC(C)(C)C(=O)NC(C(=O)NC(C)C(=O)NC(C)(C)C(=O)NC(C)(C)C(=O)NC(C)CN(C)CCO)C(C)CC (centres undefined) (X4-P[X5]A[Aib][Aib]IA[Aib][Aib]-X6; configuration not given here) in the assay. active

Name the outcome recorded for CCCCCCCCCCCCSC(=N)N in the assay. inactive

Name the outcome recorded for CN(C)c1ccc(/C=C/c2sc3ccc4ccccc4c3[n+]2C)cc1 in the assay. active

Name the outcome recorded for O=[N+]([O-])CC(O)c1ccccc1 (centres undefined) in the assay. inactive

Name the outcome recorded for Nc1cccc2cccc([N+](=O)[O-])c12 in the assay. inactive
